- Tested on: UACC-257 melanoma
- Assay info: NCI-60 one-dose screen, 48 h
- Run conditions: 10 µM unless noted
The panel holds about 83,000 compounds, 20% with a hit somewhere; the sample as a whole holds those more often. Calls of active or inactive are those of the source. Rule for the calls: active = growth percent below 10; inactive = the rest.
Tick one outcome: 1 (yes) (active), 0 (no) (inactive)

Prompt: Test call for this compound, please: `CCN(CC)c1ccc(/C=N/NC(=O)c2ccc(S(N)(=O)=O)cc2)c(O)c1`
Completion: 1 (yes)

Prompt: Hi, sorry to bother you, what did the test record for `C=C(C)[C@@H]1CC[C@]2(C(=O)O)CC[C@]3(C)[C@H](CC[C@@H]4[C@@]5(C)C/C(=C/c6ccccn6)C(=O)C(C)(C)[C@@H]5CC[C@]43C)[C@@H]12` ?
Completion: 0 (no)

Prompt: Please state the recorded outcome for this compound: `COc1ccc(/C=N/NC(=O)c2c(N)nn(C)c2Nc2ccccc2)cc1`
Completion: 0 (no)

Prompt: What is the recorded call for this compound in the test? `COC(=O)N1CCN(CCNCc2ccc(NC(=O)c3ccc(C)c(C#Cc4cnc5cccnn45)c3)cc2C(F)(F)F)CC1`
Completion: 1 (yes)

Prompt: What did this assay record as the result for `COC(=O)CCSC1=C(C)C(=O)c2ccccc2C1=O` ?
Completion: 0 (no)

Prompt: Short answer needed: outcome of this test for `COc1cc(/C=C2/C(=O)Nc3ccc(Cl)cc32)ccc1OCc1ccc(Cl)cc1` ?
Completion: 0 (no)

Prompt: Which outcome was entered for the compound CC(=O)N1N=C(c2cc3ccccc3oc2=O)CC1c1cn(-c2ccccc2)nc1-c1ccc(C)cc1 (stereo not drawn) in this test?
Completion: 0 (no)

Prompt: I would be grateful if you could indicate the recorded call for `Cn1c(SCC(=O)c2ccc(Br)cc2)nc2ccccc2c1=O` .
Completion: 0 (no)

Prompt: Status in this test for `C/C(=N/N)c1nnn(-c2ccc(Br)cc2)c1C` ?
Completion: 0 (no)

Prompt: Just curious, what result did `CCN(CC)S(=O)(=O)c1ccc(-c2nc(C(Cl)Cl)nc3cc(C)nn23)cc1` get here?
Completion: 0 (no)

Prompt: What classification did `CN1CCN(Cc2ccc(NC(=O)c3cncc(C#Cc4cnc5ccc(N)nn45)c3)cc2C(F)(F)F)CC1` end up with in this test?
Completion: 0 (no)

Prompt: Hi team, can someone confirm the assay call for `O=C(CSc1nc2ccccc2c(=O)n1-c1ccccc1)Nc1ccc(S(=O)(=O)Nc2nccs2)cc1` ?
Completion: 0 (no)

Prompt: Please indicate how the test categorized `C#C[C@]1(O)CC[C@H]2[C@@H]3CC=C4c5sc(Nc6ncccc6C)nc5CC[C@]4(C)[C@H]3CC[C@@]21C` .
Completion: 1 (yes)

Prompt: Check the results log: what was the call for `C#CCN(C)CCCOc1ccc(NC(=O)CCCCCCC(=O)NO)cc1Cl` ?
Completion: 0 (no)

Prompt: Status in this test for `C#C[C@]1(O)CC[C@H]2[C@@H]3CC=C4c5sc(Nc6ccc(C)cn6)nc5CC[C@]4(C)[C@H]3CC[C@@]21C` ?
Completion: 1 (yes)

Prompt: Short answer needed: outcome of this test for `CC(=O)OCCCCN1C=C/C(=C\C(=O)n2ccc3ccccc32)c2ccccc21` ?
Completion: 0 (no)

Prompt: Query: recorded result category for `CCCCc1nc2c(N)nc3ccccc3c2n1Cc1ccc(OC)cc1` in this test
Completion: 0 (no)

Prompt: # fetch the recorded call for `CC[C@H](CC[C@@H](C)[C@H]1CC[C@H]2[C@@H]3CC(=O)C4=CC(=O)/C(=C/c5ccc([N+](=O)[O-])cc5)C[C@]4(C)[C@H]3CC[C@]12C)C(C)C` here
Completion: 0 (no)
